experiment: Inhibition of SOD1 mutant (unknown origin); parameters: species or system Homo sapiens
property_measured: pEC50
// pEC50 here means minus log10 of the molar concentration (mol/L)

# sample_smiles, property_measured, measured
data = [
    ("O=c1cc(CN2CCc3ccccc32)[nH][nH]1", "pEC50", 5.97),
    ("CN(CCc1cc(=O)[nH][nH]1)c1cc(Cl)cc(Cl)c1", "pEC50", 5.92),
]

Proceed to the following item.
Consider the compound shown here: C#CCN(Cc1cc(=O)[nH][nH]1)c1cc(Cl)cc(Cl)c1 What is its recorded pEC50?
5.99

----------
system: Caco-2; assay: Apparent permeability of the compound from basolateral to apical side in human Caco2 cells; format: ADME, cell-based
property_measured: Papp (×10⁻⁶ cm/s)
Give the quantity in ×10⁻⁶ cm/s, number only.

# sample_smiles, property_measured, measured
records = [
    ("CN(Cc1cc(=O)[nH][nH]1)c1cc(Cl)cc(Cl)c1", "Papp", 7.6),
]

Would you kindly look at the next entry?
Need Papp, item O=c1cc(CNc2cc(Cl)cc(Cl)c2)[nH][nH]1
28.1

----------
experiment: Inhibition of SOD1 mutant (unknown origin); set-up: species or system Homo sapiens
property_measured: pEC50
Would you please state pEC50, meaning minus log10 of the concentration in mol/L, as a bare number?

Study these solved cases before continuing.
# sample_smiles, measured
rows = [
    ("CN(Cc1cc(=O)[nH][nH]1)c1ccc(Cl)c(Cl)c1", 6.38),
    ("CN(Cc1cc(=O)n(C)[nH]1)c1cc(Cl)cc(Cl)c1", 6.12),
    ("CCN(Cc1cc(=O)[nH][nH]1)c1cc(Cl)cc(Cl)c1", 6.46),
]

Need pEC50, item CN(Cc1cc(=O)[nH][nH]1)c1ccc(Cl)cc1
6.08

Request the reported pEC50 associated with COc1cccc(N(C)Cc2cc(=O)[nH][nH]2)c1
6.09

----------
system: Caco-2; test: Apparent permeability of the compound from apical to basolateral side in human Caco2 cells; type: ADME, cell-based
property_measured: Papp (×10⁻⁶ cm/s)
Number in ×10⁻⁶ cm/s, nothing else.

# sample_smiles, Papp (×10⁻⁶ cm/s)
rows = [
    ("O=c1cc(CNc2cc(Cl)cc(Cl)c2)[nH][nH]1", 0.6),
]

Next:
Find the recorded Papp belonging to CN(Cc1cc(=O)[nH][nH]1)c1cc(Cl)cc(Cl)c1 and report it.
2.2

----------
assay: Inhibition of SOD1 mutant (unknown origin); parameters: species or system Homo sapiens
Listed here are molecules together with their documented pEC50.
Scale: negative log10 of molar concentration, which is what pEC50 denotes.

// below: answered molecules
# sample_smiles, property_measured, measured
measured = [
    ("O=c1[nH][nH]c2c1CCN(c1cc(Cl)cc(Cl)c1)C2", "pEC50", 6.19),
    ("CN(Cc1cc(=O)[nH][nH]1)c1ccccc1Br", "pEC50", 5.92),
    ("O=c1cc(CN(c2ccccc2)c2cc(Cl)cc(Cl)c2)[nH][nH]1", "pEC50", 5.88),
    ("CC(C)N(Cc1cc(=O)[nH][nH]1)c1cc(Cl)cc(Cl)c1", "pEC50", 6.21),
    ("CN(Cc1cc(=O)[nH][nH]1)c1cccc(Br)c1", "pEC50", 6.12),
    ("CN(Cc1cc(=O)[nH][nH]1)c1ccc(F)cc1", "pEC50", 5.85),
    ("CN(Cc1cc(=O)[nH][nH]1)c1cccc2ccccc12", "pEC50", 6.51),
    ("CN(Cc1cc(=O)[nH][nH]1)c1ccccc1", "pEC50", 6.12),
]

Param item = CN(Cc1cc(=O)[nH][nH]1)c1cc(Cl)cc(Cl)c1 ; retrieve measured pEC50.
6.24

Looking for the measured pEC50 of O=c1[nH][nH]c2c1CN(c1cc(Cl)cc(Cl)c1)CC2 , can you help?
5.84

----------
experiment: Inhibition of SOD1 mutant (unknown origin); set-up: species or system Homo sapiens
Here the recorded pEC50 is given for each entry.
pEC50 is defined as minus the log10 of a concentration measured in mol/L.

Completed entries (count: 3):
# sample_smiles, measured
data = [
    ("O=c1cc(CN(c2cc(Cl)cc(Cl)c2)C2CC2)[nH][nH]1", 6.28),
    ("O=c1cc(CN2CCCc3ccccc32)[nH][nH]1", 6.10),
    ("CN(Cc1cc(=O)n(Cc2ccccc2)[nH]1)c1cc(Cl)cc(Cl)c1", 6.31),
]

Can you share its pEC50? I mean this molecule: Cn1[nH]c(COc2cc(Cl)cc(Cl)c2)cc1=O
6.17

Please look up its pEC50: O=c1cc(CN(Cc2ccccc2)c2cc(Cl)cc(Cl)c2)[nH][nH]1
6.16

Using the record for O=c1cc(CNc2cc(Cl)cc(Cl)c2)[nH][nH]1 , report its pEC50.
6.11

For the molecule shown here, O=c1cc(COc2cc(Cl)cc(Cl)c2)[nH][nH]1 , give the reported pEC50.
6.40

// pEC50 lookup, key: CN(Cc1cc(=O)[nH][nH]1)c1ccc(Cl)cc1Cl
6.54

Look up pEC50: CN(Cc1cc(=O)[nH][nH]1)c1ccc(C#N)cc1
5.90

What pEC50 value was documented for this molecule, CC(C)(C)N(Cc1cc(=O)[nH][nH]1)c1cc(Cl)cc(Cl)c1 ?
5.90

----------
assay: Inhibition of SOD1 mutant (unknown origin); set-up: species or system Homo sapiens
EC50 values, listed per item

Known results for compounds:
# sample_smiles, EC50
records = [
    ("Cc1c(CN(C)c2cc(Cl)cc(Cl)c2)n(C)n(C)c1=O", "> 32 µM"),
    ("CN(Cc1cc(=O)[nH][nH]1)c1ccc2ccccc2c1", "0.83 µM"),
    ("CN(Cc1cc(=O)[nH][nH]1)c1ccc(Br)cc1", "0.71 µM"),
]

Next compound, EC50 to be filled in.
I have this compound here, CN(CCCc1cc(=O)[nH][nH]1)c1cc(Cl)cc(Cl)c1 , and I need its recorded EC50.
1.45 µM
